# maps each entry to its koff
- TARGET ENTITY: T1, biotinylated recombinant human TNFα (human, UniProt P01375 77-233, biotinylated (D-biotinyl-ε-aminocaproic acid N-hydroxysuccinimide ester, 2:1 molar ratio of biotin to rhTNFα))
- T1 construct: mature; Immobilized via streptavidin on the BIAcore chip; also called biotinylated rhTNFα; biotinylated rhTNF
- T1 sequence (P01375 77-233 limits assumed): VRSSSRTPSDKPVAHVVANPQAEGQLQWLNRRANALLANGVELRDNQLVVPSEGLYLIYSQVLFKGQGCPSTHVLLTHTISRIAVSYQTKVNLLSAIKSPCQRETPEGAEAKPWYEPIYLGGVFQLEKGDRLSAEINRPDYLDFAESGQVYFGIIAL
- EXPERIMENT NOTES: SPR (BIAcore), biotinylated rhTNFα, scFv
The figure you give is taken to be in s⁻¹; do not add the unit.

BINDER: 2SD4 VH/VL1B7 scFv (scFv, V domains shown, scFv) VH: QVQLVESGGGLVQPGRSLRLSCAASGFTFDDYAMHWVRQAPGKGLDWVSAITWNSGHIDYADSVEGRFAVSRDNAKNALYLQMNSLRPEDTAVYYCTKASYLSTSSSLDNWGQGTLVTVSS VL: DIQMTQSPSSLSASIGDRVTITCRASQGIRNYLAWYQQKPGKAPKLLIYAASTLQSGVPSRFSGSGSGTDFTLTISSLQPEDVATYYCQQYNSAPDTWGQGTKVEIK
UNITS OF MEASURE: s⁻¹
koff: 0.013

query: Using the record for 2SD4 VH/VL1C1 scFv (scFv, V domains shown, scFv) VH: QVQLVESGGGLVQPGRSLRLSCAASGFTFDDYAMHWVRQAPGKGLDWVSAITWNSGHIDYADSVEGRFAVSRDNAKNALYLQMNSLRPEDTAVYYCTKASYLSTSSSLDNWGQGTLVTVSS VL: DIQMTQSPSSLSASIGDRVTITCRASQGIRNYLAWYQQKPGKAPKLLIYAASTLQSGVPSRFSGSGSGTDFTLTISSLQPEDVATYYCQKYNSDPYTFGQGTKVEIK , report its koff.
result: 0.0136

query: Now consider VH1A11/2SD4 VL scFv (scFv, V domains shown, scFv) VH: QVQLVESGGGLVQPGRSLRLSCAASGFTFDDYAMHWVRQAPGKGLDWVSAITWNSGHIDYADSVEGRFAVSRDNAKNALYLQMNSLRPEDTAVYYCTKASYLSTSSSLDDWGQGTLVTVSS VL: DIQMTQSPSSLSASIGDRVTITCRASQGIRNYLAWYQQKPGKAPKLLIYAASTLQSGVPSRFSGSGSGTDFTLTISSLQPEDVATYYCQKYNSAPYAFGQGTKVEIK and answer again.
result: 0.0134

query: Can you check 2SD4 VH/VL1C7 scFv (scFv, V domains shown, scFv) VH: QVQLVESGGGLVQPGRSLRLSCAASGFTFDDYAMHWVRQAPGKGLDWVSAITWNSGHIDYADSVEGRFAVSRDNAKNALYLQMNSLRPEDTAVYYCTKASYLSTSSSLDNWGQGTLVTVSS VL: DIQMTQSPSSLSASIGDRVTITCRASQGIRNYLAWYQQKPGKAPKLLIYAASTLQSGVPSRFSGSGSGTDFTLTISSLQPEDVATYYCQKYNSAPYNFGQGTKVEIK next?
result: 0.02

query: Would you kindly repeat that for VH1F6/2SD4 VL scFv (scFv, V domains shown, scFv) VH: QVQLVESGGGLVQPGRSLRLSCAASGFTFDDYAMHWVRQAPGKGLDWVSAITWNSGHIDYADSVEGRFAVSRDNAKNALYLQMNSLRPEDTAVYYCAKASFLSTSSSLEYWGQGTLVTVSS VL: DIQMTQSPSSLSASIGDRVTITCRASQGIRNYLAWYQQKPGKAPKLLIYAASTLQSGVPSRFSGSGSGTDFTLTISSLQPEDVATYYCQKYNSAPYAFGQGTKVEIK ?
result: 0.0229
